# assay notes: Fluorescence of modified Rhodamine dyes (spectrometry and spectrofluorometry)
# Assay type: physicochemical
# condition description: Test Conc. 1 μM, Tris
parameter measured: Signal Amplitude
# answer = number (no unit)

Bench note: what Signal Amplitude did COCCOCCOCCOC(=O)Nc1ccc2c(c1)Oc1cc(N)ccc1C21OC(=O)c2ccccc21 (stereo not drawn) show?
2841

So what does the record say about Signal Amplitude for CCCCCCN(C)C(=O)Nc1ccc2c(c1)Oc1cc(N)ccc1C21OC(=O)c2ccccc21 (stereo not drawn) ?
1466

Tell me the measured Signal Amplitude of CS(=O)(=O)Nc1ccc2c(c1)Oc1cc(N)ccc1C21OC(=O)c2ccccc21 (stereo not drawn) , please.
988

So what's the measured Signal Amplitude for this one? CCSC(=O)Nc1ccc2c(c1)Oc1cc(N)ccc1C21OC(=O)c2ccccc21 (stereo not drawn) [N-(Ethylthio)carbonyl-Rhodamine 110]
2430

Item under review: CCOC(=O)Nc1ccc2c(c1)Oc1cc(N)ccc1C21OC(=O)c2ccccc21 (stereo not drawn) . Reported Signal Amplitude?
3070

Which measured Signal Amplitude value corresponds to CCCCOCCOC(=O)Nc1ccc2c(c1)Oc1cc(N)ccc1C21OC(=O)c2ccccc21 (stereo not drawn) ?
2047
